Hello, the source for this data is patent US20200061026A1, in case you need it.

# Method: Hepatocyte stability assay, mouse
# Format: in vitro ADME
# Run parameters: CD-1, hepatocytes; mouse (ms); 1 μM; read-out: Hepatocyte stability (t½)
Quantity kind: half-life at 1 μM

INSERT INTO results (molecule, readout_value) VALUES
  ('O=C(CNC(=O)c1ccc(C2=NO[C@](c3cc(Cl)cc(C(F)(F)F)c3)(C(F)(F)F)C2)c2ccccc12)NCC(F)(F)F (racemic)', '> 3.62 h'),
  ('O=C(CNC(=O)c1ccc(C2=NO[C@@](c3cc(Cl)cc(C(F)(F)F)c3)(C(F)(F)F)C2)c2ccccc12)NCC(F)(F)F [(S)-afoxolaner]', '1.07 h');
